# tested system: T1, recombinant human FGFR3c Fc fusion (human, UniProt P22607 141-372)
# T1 construct: also called FGFR3IIIc; not shown: Fc part of the FGFR-Fc fusion
# T1 sequence: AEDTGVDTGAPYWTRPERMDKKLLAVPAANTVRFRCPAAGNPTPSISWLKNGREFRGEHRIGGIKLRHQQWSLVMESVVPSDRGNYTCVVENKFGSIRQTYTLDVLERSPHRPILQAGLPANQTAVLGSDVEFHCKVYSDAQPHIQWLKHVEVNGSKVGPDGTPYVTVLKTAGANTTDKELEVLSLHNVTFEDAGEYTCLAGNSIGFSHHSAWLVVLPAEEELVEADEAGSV
# procedure summary: solid phase ELISA on coated FGFR-Fc
Documented pEC50 across a set of binders
Reminder that pEC50 means the negative base-10 logarithm of the concentration expressed in mol/L.

binder	pEC50
Ab19 (antibody, human IgG2, kappa, V domains shown, format in the assays not spelled out) VH: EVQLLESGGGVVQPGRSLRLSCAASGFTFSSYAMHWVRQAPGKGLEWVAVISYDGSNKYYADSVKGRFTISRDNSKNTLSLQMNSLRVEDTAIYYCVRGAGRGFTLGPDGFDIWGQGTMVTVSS VL: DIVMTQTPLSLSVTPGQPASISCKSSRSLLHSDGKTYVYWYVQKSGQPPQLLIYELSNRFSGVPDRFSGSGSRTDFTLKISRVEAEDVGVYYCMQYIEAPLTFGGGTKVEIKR	10.13

q: // query pEC50 value for entry Ab15 (antibody, human IgG2, kappa, V domains shown, Format in each assay not spelled out; also called FGF#26) VH: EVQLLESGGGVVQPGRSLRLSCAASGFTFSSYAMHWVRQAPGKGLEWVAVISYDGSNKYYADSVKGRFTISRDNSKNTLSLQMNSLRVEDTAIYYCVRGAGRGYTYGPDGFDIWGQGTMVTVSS VL: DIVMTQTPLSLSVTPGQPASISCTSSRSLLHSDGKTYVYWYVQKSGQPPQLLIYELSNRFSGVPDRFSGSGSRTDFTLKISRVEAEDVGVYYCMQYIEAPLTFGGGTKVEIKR
a: 9.89

q: State the recorded pEC50 for this entry: Ab92 (antibody, human IgG2, kappa, V domains shown, format in the assays not spelled out) VH: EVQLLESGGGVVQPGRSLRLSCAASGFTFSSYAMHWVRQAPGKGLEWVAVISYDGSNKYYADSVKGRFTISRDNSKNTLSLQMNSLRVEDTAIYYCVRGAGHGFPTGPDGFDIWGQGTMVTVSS VL: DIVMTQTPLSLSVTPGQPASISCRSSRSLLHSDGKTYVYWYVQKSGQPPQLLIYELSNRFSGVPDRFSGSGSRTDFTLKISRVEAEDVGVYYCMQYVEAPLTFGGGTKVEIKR
a: 9.58

q: Endpoint output: pEC50 of Ab90 (antibody, human IgG2, kappa, V domains shown, format in the assays not spelled out) VH: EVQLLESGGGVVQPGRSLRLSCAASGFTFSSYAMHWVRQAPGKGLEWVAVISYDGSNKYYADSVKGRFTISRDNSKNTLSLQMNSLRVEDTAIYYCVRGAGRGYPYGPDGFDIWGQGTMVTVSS VL: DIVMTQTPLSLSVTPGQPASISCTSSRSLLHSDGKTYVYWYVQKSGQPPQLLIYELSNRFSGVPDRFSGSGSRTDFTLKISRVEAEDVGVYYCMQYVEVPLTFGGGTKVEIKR . Value?
a: 9.77
